Tested on: Klebsiella pneumoniae
Settings: Concentration 32 ug.mL-1;; ASSAY_TEST Inhibition of Bacterial Growth; detection method Absorption (OD600); MEDIA CAMHB; plate type 384well; NBS; CORNING #3640; time 18 hr
Description: Antibacterial activity against Klebsiella pneumoniae MDR ATCC 70063 (CO-ADD:GN_003); MIC in CAMBH media using NBS plates, by OD(600)
Potency and affinity values are given separately.
MEASURED_PARAMETER: Inhibition (%)
One number for each entry, in %.

Example compounds with recorded Inhibition:
CCc1nnc2c(=O)n(CC(=O)Nc3ccc(C(C)C)cc3)c3ccccc3n12 :: 15.72
COC(=O)c1ccc(CN(c2ccc(F)cc2)S(=O)(=O)c2cccn3c(C)nnc23)o1 :: 11.43
COc1ccccc1-n1ccn2c(SCC(=O)N3CCN(c4ccccc4F)CC3)nnc2c1=O :: 14.09
CCc1nnc2ccc(S(=O)(=O)N(Cc3ccc(OC)cc3)c3ccc(F)cc3)cn12 :: 10.6

The following compounds each have a reported value; give each one's Inhibition.
1. O=C(CSc1nnc2c3cc(-c4ccccc4)nn3ccn12)Nc1cccc(Br)c1
2. O=C(CSc1nnc2c(=O)n(-c3ccc(F)cc3)ccn12)c1ccccc1Cl
3. COc1cccc(Oc2nccn3c(=O)n(CC(=O)NC4CCCCC4)nc23)c1
4. O=C(CSc1nnc2c(=O)n(-c3ccccc3)ccn12)c1ccc(F)cc1
5. O=S(=O)(c1ccc2nncn2c1)N(Cc1ccccc1)c1ccc(F)c(F)c1
6. COc1cc(NC(=O)Cn2nc3ccc(-c4ccc(Cl)cc4)nn3c2=O)cc(OC)c1
7. Cc1nnc2ccc(S(=O)(=O)N(Cc3cccc(F)c3)c3cccc(Cl)c3)cn12
8. Cc1cccc(Oc2nccn3c(=O)n(CC(=O)N4CCN(c5ccccc5F)CC4)nc23)c1C

# output
14.04
14.55
9.68
11
5.23
6.35
-2.92
-1.33

The following compounds each have a reported value; give each one's Inhibition.
1. COc1cccc(-c2nc(CSc3nc4ccccc4n4c(C)nnc34)c(C)o2)c1OC
2. COc1ccc(NC(=O)c2ccc3nn(CC(=O)Nc4ccc(C(C)C)cc4)c(=O)n3c2)cc1
3. Cc1cc(C)cc(Nc2nc(C)cc3nn(CC(=O)NC4CCCCC4)c(=O)n23)c1
4. CCc1nnc2c(S(=O)(=O)N(Cc3ccc(F)cc3)c3cccc(Cl)c3)cccn12

# output
[8.41, 5.27, 13.04, 0.19]

The following compounds each have a reported value; give each one's Inhibition.
1. Cc1ccc(NC(=O)Cn2nc3c4cc(-c5ccc(C)c(C)c5)nn4ccn3c2=O)c(C)c1
2. CCc1nnc2c(S(=O)(=O)N(Cc3ccccc3Cl)c3ccccc3)cccn12

# output
1: -6.92; 2: 6.34

The following compounds each have a reported value; give each one's Inhibition.
1. COc1ccc(NC(=O)Cn2nc3c(Sc4cccc(C)c4)nccn3c2=O)cc1Cl
2. O=S(=O)(Nc1ccc2c(c1)OCCO2)c1ccc2nncn2c1
3. CCC(C)NC(=O)Cn1nc2n(CC(C)C)c(=O)c3ccc(C(=O)NC4CCCCC4)cc3n2c1=O (stereo not given)
4. CC(C)Sc1ccc2nn(CC(=O)Nc3ccc(Br)cc3F)c(=O)n2n1
5. CC(=O)c1ccc(NC(=O)Cn2nc3ccc(-c4ccc(C)cc4)nn3c2=O)cc1

# output
1. 5.17
2. 12.24
3. 0.48
4. 15.2
5. 11.92

The following compounds each have a reported value; give each one's Inhibition.
1. Cc1ccc(-c2ccc3nn(CC(=O)Nc4ccccc4)c(=O)n3n2)cc1C
2. O=C(Cn1nc2c(SCc3ccccc3)nccn2c1=O)NC1CCCC1
3. Cc1nnc2ccc(S(=O)(=O)N(Cc3ccccc3Cl)c3cccc(F)c3)cn12

# output
3.8
3.94
7.69

The following compounds each have a reported value; give each one's Inhibition.
1. CCOc1ccccc1NC(=O)Cn1nc2c(Sc3cccc(C)c3)nccn2c1=O
2. O=C(CCc1nnc2c(N3CCCCC3)nc3ccccc3n12)NCc1ccccc1F
3. COc1cccc(-n2ccn3c(SCC(=O)Nc4ccc(Br)cc4)nnc3c2=O)c1

# output
9.01
14.62
-3.95

The following compounds each have a reported value; give each one's Inhibition.
1. Cc1cc2nn(CC(=O)Nc3cc(F)cc(F)c3)c(=O)n2c(Nc2ccc(F)c(C)c2)n1
2. CCCN(C)c1nccn2c(=O)n(CC(=O)Nc3cccc(SC)c3)nc12
3. CC(C)c1nnc2c(=O)n(CC(=O)Nc3ccc(Br)cc3F)c3ccccc3n12
4. COc1ccc(NC(=O)c2ccc3nn(CC(=O)Nc4ccc(C(F)(F)F)cc4)c(=O)n3c2)cc1

# output
[18.09, 8.64, 12.63, -7.6]

The following compounds each have a reported value; give each one's Inhibition.
1. COc1cc(NC(=O)Cn2nc3c(N4CCCC(C)C4)nccn3c2=O)cc(OC)c1 (stereo not given)
2. Cc1cc(C)cc(N(Cc2cccc(F)c2)S(=O)(=O)c2cccn3c(C)nnc23)c1
3. CCc1ccc(Cn2c(=O)c3sccc3n3c(=O)n(Cc4c(F)cccc4Cl)nc23)cc1
4. Cc1cccc(Oc2nc3ccccc3n3c(=O)n(CC(=O)Nc4cccc(C#N)c4)nc23)c1C
5. Cc1cccc(NC(=O)Cn2nc3ccc(-c4ccc(Cl)cc4)nn3c2=O)c1
6. CC(C)Cn1c(=O)c2sccc2n2c(=O)n(CC(=O)NC(C)(C)C)nc12
7. Cc1ccc(NC(=O)Cn2nc3c(Sc4ccccc4)nccn3c2=O)c(Br)c1

# output
1: 5.76; 2: 2.61; 3: 5.71; 4: 4.26; 5: 7.75; 6: 2.39; 7: 0.72

The measurements presented in this section are drawn from ChEMBL document CHEMBL4513146.
